- tgt: human CXCR4 (human, UniProt P61073 1-352)
- Sequence (P61073 whole entry): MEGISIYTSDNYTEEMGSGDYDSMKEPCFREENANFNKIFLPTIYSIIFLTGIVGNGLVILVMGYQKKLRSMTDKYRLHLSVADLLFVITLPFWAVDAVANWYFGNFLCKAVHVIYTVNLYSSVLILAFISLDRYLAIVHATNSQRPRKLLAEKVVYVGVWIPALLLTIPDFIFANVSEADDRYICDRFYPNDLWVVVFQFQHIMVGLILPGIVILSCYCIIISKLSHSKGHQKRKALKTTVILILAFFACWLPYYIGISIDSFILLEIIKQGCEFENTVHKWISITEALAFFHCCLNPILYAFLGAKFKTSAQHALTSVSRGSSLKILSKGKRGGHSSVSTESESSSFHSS
- experimentSummary: cell-based or functional assay
Bridges are numbered along the chain shown (N, C = ends). [ ]: non-standard residue; d: D form. 2Nal = N[C@@H](Cc1ccc2ccccc2c1)C(=O)O; Cit = NC(=O)NCCC[C@H](N)C(=O)O
Items are presented alongside their recorded IC50 (nM) Ca2+ assay (method 2).
API: value field is a number in nM; no unit string.

Example results:
[[record]]
binder = "cyclo(YRTCRG[dP]RR[2Nal]CY[Cit]K[dP]P) (disulfide 4-11; SMILES C[C@@H](O)[C@@H]1NC(=O)[C@H](CCCNC(=N)N)NC(=O)[C@H](Cc2ccc(O)cc2)NC(=O)[C@@H]2CCCN2C(=O)[C@H]2CCCN2C(=O)[C@H](CCCCN)NC(=O)[C@H](CCCNC(N)=O)NC(=O)[C@H](Cc2ccc(O)cc2)NC(=O)[C@@H]2CSSC[C@H](NC1=O)C(=O)N[C@@H](CCCNC(=N)N)C(=O)NCC(=O)N1CCC[C@@H]1C(=O)N[C@@H](CCCNC(=N)N)C(=O)N[C@@H](CCCNC(=N)N)C(=O)N[C@@H](Cc1ccc3ccccc3c1)C(=O)N2) [Example 131]"
reportedmetric = "IC50 (nM) Ca2+ assay (method 2)"
outputunit = "nM"
assayvalue = 2.4

[[record]]
binder = "cyclo(YRTCRG[dP]RRYCY[Cit]K[dP]P) (disulfide 4-11; SMILES C[C@@H](O)[C@@H]1NC(=O)[C@H](CCCNC(=N)N)NC(=O)[C@H](Cc2ccc(O)cc2)NC(=O)[C@@H]2CCCN2C(=O)[C@H]2CCCN2C(=O)[C@H](CCCCN)NC(=O)[C@H](CCCNC(N)=O)NC(=O)[C@H](Cc2ccc(O)cc2)NC(=O)[C@@H]2CSSC[C@H](NC1=O)C(=O)N[C@@H](CCCNC(=N)N)C(=O)NCC(=O)N1CCC[C@@H]1C(=O)N[C@@H](CCCNC(=N)N)C(=O)N[C@@H](CCCNC(=N)N)C(=O)N[C@@H](Cc1ccc(O)cc1)C(=O)N2) [Example 146]"
reportedmetric = "IC50 (nM) Ca2+ assay (method 2)"
outputunit = "nM"
assayvalue = 0.24

[[record]]
binder = "cyclo(QR[Cit]CRG[dP]RR[2Nal]CYQK[dP]P) (disulfide 4-11; SMILES N=C(N)NCCC[C@@H]1NC(=O)[C@@H]2CSSC[C@H](NC(=O)[C@H](Cc3ccc4ccccc4c3)NC(=O)[C@H](CCCNC(=N)N)NC(=O)[C@H](CCCNC(=N)N)NC(=O)[C@H]3CCCN3C(=O)CNC1=O)C(=O)N[C@@H](Cc1ccc(O)cc1)C(=O)N[C@@H](CCC(N)=O)C(=O)N[C@@H](CCCCN)C(=O)N1CCC[C@@H]1C(=O)N1CCC[C@H]1C(=O)N[C@@H](CCC(N)=O)C(=O)N[C@@H](CCCNC(=N)N)C(=O)N[C@@H](CCCNC(N)=O)C(=O)N2) [Example 62]"
reportedmetric = "IC50 (nM) Ca2+ assay (method 2)"
outputunit = "nM"
assayvalue = 1.8


With those in mind, consider the next binder.
In: IC50 (nM) Ca2+ assay (method 2) for cyclo(YRWCRG[dP]RR[2Nal]CYQK[dP]P) (disulfide 4-11; SMILES N=C(N)NCCC[C@@H]1NC(=O)[C@@H]2CSSC[C@H](NC(=O)[C@H](Cc3ccc4ccccc4c3)NC(=O)[C@H](CCCNC(=N)N)NC(=O)[C@H](CCCNC(=N)N)NC(=O)[C@H]3CCCN3C(=O)CNC1=O)C(=O)N[C@@H](Cc1ccc(O)cc1)C(=O)N[C@@H](CCC(N)=O)C(=O)N[C@@H](CCCCN)C(=O)N1CCC[C@@H]1C(=O)N1CCC[C@H]1C(=O)N[C@@H](Cc1ccc(O)cc1)C(=O)N[C@@H](CCCNC(=N)N)C(=O)N[C@@H](Cc1c[nH]c3ccccc13)C(=O)N2) [Example 73] ?
Out: 8.8
